# System: Wolbachia pipientis
# assay_info: Anti-Wolbachia Cell-Based Screen
# Assay type: functional
# Design: scale not given: in the data most compounds retested in dose-response had high values
# test_settings: 5 µM
Screen size: about 48,000 compounds; about 13,000 (27%) showed an effect of 50% or more. This is one part of the list.
parameter_measured: Percent Effect (%)
Give the value, in units of %, as a plain number.

For orientation, consider the following solved cases.
>  <compound>
Cc1cc(-c2ccccc2C(=O)O)nc(C2CCCCN2C)n1 (configuration not stated)

>  <measurement_unit>
%

>  <Percent Effect>
97.78

$$$$
>  <compound>
Cc1cc(=O)n(C)cc1NC(=O)NCc1cccc(F)c1

>  <measurement_unit>
%

>  <Percent Effect>
28.52

$$$$
>  <compound>
CC(C)N(C)C(=O)C1=NOC2(CCN(C(=O)c3ccnnc3)C2)C1 (configuration not stated)

>  <measurement_unit>
%

>  <Percent Effect>
97.08

$$$$
>  <compound>
COCC(=O)N[C@H](C(=O)NC(C)c1cccc(C)c1C)C(C)C (some centres not stated)

>  <measurement_unit>
%

>  <Percent Effect>
4.041

$$$$
>  <compound>
Cc1cc(C)n(-c2ccc(N3CCC(O)CC3)nc2)n1

>  <measurement_unit>
%

>  <Percent Effect>
-17.54

$$$$

Task: Record lookup: for Wolbachia pipientis, what Percent Effect belongs to O=C(NCC(c1cccs1)N1CCOCC1)c1ccc(F)cc1Cl (configuration not stated) ?
Result: -4.405

Task: Find the measured Percent Effect: item CC(C)(O)CCc1cccc(C(=O)NCC2COCCO2)c1 (configuration not stated) , target or system Wolbachia pipientis.
Result: 5.622

Task: Which Percent Effect is reported with Wolbachia pipientis for this entry: Cc1cccc(C(=O)N2CCC3(CC(C(=O)N(C)C(C)C)=NO3)C2)c1 (configuration not stated) ?
Result: 115.7

Task: What is its Percent Effect for Wolbachia pipientis? Entry: "O=C1N(c2ccc(F)cc2)Cc2nc(=O)n(Cc3cccc(Cl)c3)n21"
Result: -4.998

Task: Form field - read-out: Percent Effect; system: Wolbachia pipientis; submitted item: O=C(Nc1nnc(C2CC2)s1)NC1CCOc2ccccc21 (configuration not stated)
Result: -5.522

Task: Param readout = Percent Effect; param system = Wolbachia pipientis; param query = Cc1ccsc1C(=O)N1CCC2(CC(C(=O)N(C)C(C)C)=NO2)C1 (configuration not stated) ; response: value
Result: 115.3

Task: Give Wolbachia pipientis Percent Effect for "Cn1c(CN2CCN(c3cccnc3)CC2)cc2ccccc21"
Result: 39.54

* * *

# Test system: Wolbachia pipientis
# assay_info: Anti-Wolbachia Cell-Based Screen
# Type: functional
# Design: scale not given: in the data most compounds retested in dose-response had high values
# test_settings: 5 µM
About 13,000 (27%) of roughly 48,000 compounds showed an effect of 50% or more. The list shows a part of the results.
In this section, each of the compounds is paired with its reported Percent Effect.

>  <compound>
Cc1ccc(N2CCCC(N(C)Cc3nc(C)c(C)o3)C2)nn1 (stereo not drawn)

>  <parameter_measured>
Percent Effect

>  <result>
-10.05%

$$$$
>  <compound>
O=C(C1CC1)N1CCN(Cc2coc(-c3ccc(Cl)cc3)n2)CC1

>  <parameter_measured>
Percent Effect

>  <result>
3.08%

$$$$
>  <compound>
Cc1ccc(NCCCNC(=O)NCc2c(C)cc(C)[nH]c2=O)nc1

>  <parameter_measured>
Percent Effect

>  <result>
7.392%

$$$$
>  <compound>
Cn1nc(CNC(=O)CC#N)c2c1CN(CC1CC1)CC2.O=C(O)C(F)(F)F

>  <parameter_measured>
Percent Effect

>  <result>
-7.895%

$$$$
>  <compound>
COC[C@@]12CC[C@@H](N3CCOCC3)C[C@H]1CCN(c1ncccc1C)C2

>  <parameter_measured>
Percent Effect

>  <result>
-3.262%

$$$$

Task: Need Percent Effect of "O=C(c1cc(CC2(NC3CCCCC3)COC2)no1)N1CCCCC1" , thanks.
Result: 6.649%

Task: Record request: Percent Effect value, item "CCc1noc(CCCC(=O)Nc2cc(C(F)(F)F)c[nH]c2=O)n1"
Result: 7.764%

Task: Give its Percent Effect value. Item: "CN(C)C(=O)[C@@H]1CC[C@@H]2[C@@H](CCN2Cc2nccs2)O1.O=C(O)C(F)(F)F"
Result: 98.79%

Task: Fill in the blank: the reported Percent Effect of "CCN(CC)C(=O)[C@@H]1C[C@H](n2cc(-c3ccccn3)nn2)CN1" is ____.
Result: -5.115%

Task: For the compound shown here, "CS(=O)(=O)N1C[C@H]2CCCN(Cc3nccs3)[C@H]2C1.O=C(O)C(F)(F)F" , give the reported Percent Effect.
Result: 1.749%

Task: # query: Percent Effect of entry COCC(=O)N1CCC2(CC1)CC(CC(=O)NC1CC1)c1ccccc12 (stereo not drawn)
Result: -16.01%

Task: // Percent Effect lookup, key: CN(C)Cc1ccnc(C2CN(CCCc3ccccc3)CCO2)n1 (stereo not drawn)
Result: 114%
